Biological target: Prostaglandin G/H synthase 2 (Homo sapiens) (UniProt P35354)
Settings: at 100 nM
Description: Inhibition of recombinant human COX2 using arachidonic acid as substrate at 100 nM preincubated for 10 mins prior substrate addition measured after 2 mins by EIA
propertyMeasured: inhibition (%)

// worked examples, inhibition included
{"compound": "C=CCc1ccc(O)c(-c2cc(CCC)on2)c1", "testedOn": "Prostaglandin G/H synthase 2 (Homo sapiens) (UniProt P35354)", "outputUnit": "%", "inhibition": 39}
{"compound": "CCCc1cc(-c2cc(Br)ccc2O)no1", "testedOn": "Prostaglandin G/H synthase 2 (Homo sapiens) (UniProt P35354)", "outputUnit": "%", "inhibition": 35}
{"compound": "C=CCc1ccc(OCC=C(C)C)c(-c2ccc(OC)c(CC=C)c2)c1", "testedOn": "Prostaglandin G/H synthase 2 (Homo sapiens) (UniProt P35354)", "outputUnit": "%", "inhibition": 44}
{"compound": "C=CCNC(=O)Oc1ccc(CC=C)cc1-c1ccc(OC)c(CC=C)c1", "testedOn": "Prostaglandin G/H synthase 2 (Homo sapiens) (UniProt P35354)", "outputUnit": "%", "inhibition": 48}
{"compound": "CCCc1ccc(O)c(-c2ccc(OC)c(CCC)c2)c1", "testedOn": "Prostaglandin G/H synthase 2 (Homo sapiens) (UniProt P35354)", "outputUnit": "%", "inhibition": 46}
{"compound": "COc1ccc(-c2cc(CC3CO3)ccc2O)cc1CC1CO1 (stereo unspecified)", "testedOn": "Prostaglandin G/H synthase 2 (Homo sapiens) (UniProt P35354)", "outputUnit": "%", "inhibition": 58}

1: C=CCc1ccc(OC)c(-c2ccc(OC)c(CC=C)c2)c1
2: C=CCn1cc(-c2cc(CCC)ccc2O)nn1
Query string: Identify the item whose inhibition is the smaller number: 1 or 2 Return value: the label identifying the chosen record.
Result string: 2

###

Molecular target: Prostaglandin G/H synthase 2 (Homo sapiens) (UniProt P35354)
Sequence (whole entry): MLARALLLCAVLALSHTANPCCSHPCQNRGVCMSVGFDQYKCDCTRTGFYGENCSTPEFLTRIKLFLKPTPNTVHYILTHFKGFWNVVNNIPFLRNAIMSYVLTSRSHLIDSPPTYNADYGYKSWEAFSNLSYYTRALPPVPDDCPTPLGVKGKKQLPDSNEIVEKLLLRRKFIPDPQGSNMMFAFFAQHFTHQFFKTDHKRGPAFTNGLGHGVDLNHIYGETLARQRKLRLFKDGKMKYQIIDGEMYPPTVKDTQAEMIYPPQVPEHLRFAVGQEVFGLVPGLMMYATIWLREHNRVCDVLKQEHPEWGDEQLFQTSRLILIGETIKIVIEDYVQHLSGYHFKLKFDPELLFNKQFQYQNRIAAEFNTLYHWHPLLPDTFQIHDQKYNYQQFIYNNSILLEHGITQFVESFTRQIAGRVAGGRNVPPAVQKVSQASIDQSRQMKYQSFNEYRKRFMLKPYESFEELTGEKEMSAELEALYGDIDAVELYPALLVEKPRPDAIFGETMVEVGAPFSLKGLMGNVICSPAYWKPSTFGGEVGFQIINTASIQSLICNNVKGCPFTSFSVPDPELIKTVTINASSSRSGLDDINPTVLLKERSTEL
Conditions: at 100 nM
propertyMeasured: inhibition (%)

{"smilesNotation": "CCCc1ccc(O)c(-c2cn(CC3CCC3)nn2)c1", "inhibition (%)": 33}

a: C=CCc1cc(Br)c(O)c(-c2ccc(OC)c(CC=C)c2)c1
b: C=CCc1ccc(OC(C)C)c(-c2ccc(OC)c(CC=C)c2)c1
Query string: Which record would sort first by descending inhibition, a or b ? Return value: the label identifying the chosen record.
Result string: a
(a: 52%, b: 23%)

###

Target: Prostaglandin G/H synthase 2 (Homo sapiens) (UniProt P35354)
Sequence (whole entry): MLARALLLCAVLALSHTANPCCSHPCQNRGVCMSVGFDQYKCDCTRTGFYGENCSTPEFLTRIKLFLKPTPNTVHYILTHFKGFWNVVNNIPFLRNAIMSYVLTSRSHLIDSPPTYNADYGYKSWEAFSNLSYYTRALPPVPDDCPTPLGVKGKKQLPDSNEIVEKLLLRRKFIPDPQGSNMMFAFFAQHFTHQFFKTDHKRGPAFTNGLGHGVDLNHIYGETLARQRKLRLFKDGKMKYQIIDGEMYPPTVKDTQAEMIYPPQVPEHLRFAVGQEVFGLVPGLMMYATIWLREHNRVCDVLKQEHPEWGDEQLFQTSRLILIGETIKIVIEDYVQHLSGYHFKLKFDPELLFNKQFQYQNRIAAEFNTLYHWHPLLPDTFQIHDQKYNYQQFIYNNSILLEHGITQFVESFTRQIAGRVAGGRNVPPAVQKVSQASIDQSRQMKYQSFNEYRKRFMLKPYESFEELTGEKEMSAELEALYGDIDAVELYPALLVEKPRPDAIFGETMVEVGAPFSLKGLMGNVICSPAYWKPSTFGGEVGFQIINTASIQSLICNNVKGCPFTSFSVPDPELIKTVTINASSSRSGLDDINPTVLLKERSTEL
Conditions: at 100 nM
propertyMeasured: inhibition (%)

{"smilesNotation": "C=CCc1ccc(OC(=O)N(C)Cc2ccccc2)c(-c2ccc(OC)c(CC=C)c2)c1", "inhibition [%]": 63}
{"smilesNotation": "C=CCc1ccc(O)c(-c2ccc(OC)c(CC=C)c2)c1", "inhibition [%]": 57}
{"smilesNotation": "C=CCc1ccc(OC(=O)NCc2ccccc2)c(-c2ccc(OC)c(CC=C)c2)c1", "inhibition [%]": 65}

###

Biological target: Prostaglandin G/H synthase 2 (Homo sapiens) (UniProt P35354);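 also: recombinant enzyme with arachidonic acid substrate, compound preincubated 10 min before substrate, product read by EIA after 2 min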
Details: at 100 nM
propertyMeasured: inhibition (%)

{"smilesNotation": "COc1ccc(-c2cc(CC=C(C)C)ccc2O)cc1CC=C(C)C", "inhibition, %": 41}
{"smilesNotation": "C=CCc1ccc(O)c(-c2cc(CO)on2)c1", "inhibition, %": 38}
{"smilesNotation": "C=CCc1ccc(OC(C)=O)c(-c2ccc(OC)c(CC=C)c2)c1", "inhibition, %": 39}
